# tested.target: Peptide 1: Biotin-…-[Tyr(PC)]-acid
# Sequence (peptide, as listed by the source): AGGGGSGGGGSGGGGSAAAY
# method.notes: scFv ELISA
Reported OD450 values for a set of binders
Return type: number; implicit unit OD450.

| binder | parameter.measured | result.units | reading |
| --- | --- | --- | --- |
| PcOxP_DB01_B07 (scFv, V domains shown, scFv in periplasmic extract) VH: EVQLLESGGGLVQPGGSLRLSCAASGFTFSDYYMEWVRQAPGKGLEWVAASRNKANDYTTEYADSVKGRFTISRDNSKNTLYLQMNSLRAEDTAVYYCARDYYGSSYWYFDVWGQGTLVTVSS VL: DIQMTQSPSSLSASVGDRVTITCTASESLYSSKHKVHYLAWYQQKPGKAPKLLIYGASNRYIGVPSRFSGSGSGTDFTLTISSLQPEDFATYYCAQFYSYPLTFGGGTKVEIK | OD450 | OD450 | 1.07 |

Kindly consider the entry below.
[ask] Read the entry PcOxP_DB03_F10 (scFv, V domains shown, scFv in periplasmic extract) VH: EVQLLESGGGLVQPGGSLRLSCAASGFTFSDHYMEWVRQAPGKGLEWVAASRNSGNSYTTEYADSVKGRFTISRDNSKNTLYLQMNSLRAEDTAVYYCARDYYGSSYWYFDVWGQGTLVTVSS VL: DIQMTQSPSSLSASVGDRVTITCTASESLYSSKHSVHYLAWYQQKPGKAPKLLIYGASNRFIGVPSRFSGSGSGTDFTLTISSLQPEDFATYYCAQFYSYPLTFGGGTKVEIK and write its reported OD450.
[reply] 0.65
